The measured values listed here are drawn from ChEMBL document CHEMBL2331538.

# assay-target: Phospholipase A2, membrane associated (Homo sapiens) (UniProt P14555)
# Sequence (P14555 whole entry): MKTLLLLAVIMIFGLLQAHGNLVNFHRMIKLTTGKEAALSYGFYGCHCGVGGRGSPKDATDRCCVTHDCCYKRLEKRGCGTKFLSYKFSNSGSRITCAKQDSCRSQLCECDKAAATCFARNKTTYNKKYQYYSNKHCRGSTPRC
# assay-info: Inhibition of sPLA2-IIA (unknown origin)-integrin alphaVbeta3 interaction in human K562 cells pretreated for 30 mins to immobilized sPLA2 before adding cells by phosphatase assay relative to BSA
# Assay type: cell-based
The source made the active and inactive calls. The calls are words filed in the database; no cut-off is given here.
readout: Imax

Below: 4 compounds and their reported Imax.
smiles-repr	Imax
Cc1nc(NC(=O)c2ccccc2)sc1-c1cc(C(=O)N[C@@H](C)C(=O)O)[nH]n1	inactive
N=C(N)NCCC[C@@H](NC(=O)c1csc(-c2ccccn2)n1)C(=O)N[C@@H](Cc1c[nH]c2ccccc12)C(=O)N[C@@H](CCC(=O)O)C(=O)N[C@H](Cc1ccccc1)C(=O)O	< 30%
C[C@H](NC(=O)[C@@H](CCCNC(=N)N)NC(=O)[C@@H](CC(N)=O)NC(=O)[C@@H](CCCNC(=N)N)NC(=O)[C@@H](Cc1ccccc1)NC(=O)c1ccc2nn3c(c2c1)OCc1cc(Cl)ccc1-3)C(=O)N[C@@H](Cc1ccc(O)cc1)C(=O)O	71%
Cc1nc(NC(=O)c2ccccc2)sc1-c1cc(C(=O)N[C@@H](C)C(=O)N[C@@H](Cc2c[nH]c3ccccc23)C(=O)O)[nH]n1	inactive

In plain terms, `CC[C@H](C)[C@H](NC(=O)[C@@H](CC(=O)O)NC(=O)[C@H](Cc1c[nH]c2ccccc12)NC(=O)[C@H](C)N)C(=O)O` has a documented Imax of inactive

Form field Imax, entry `Cc1nc(NC(=O)c2ccccc2)sc1-c1cc(C(=O)NCC(=O)N[C@H](CCCNC(=N)N)C(=O)NCC(=O)N[C@H](CC(=O)O)C(=O)O)[nH]n1` : 87%
